Each recorded value in this set is attributed to patent US10370380B2.

# subject-of-test: humanized OX2 receptor (Homo sapiens)
# Construct: expressed in transfected cells; host or cells: HEK-293 cells
# Sequence (O43614 1-444): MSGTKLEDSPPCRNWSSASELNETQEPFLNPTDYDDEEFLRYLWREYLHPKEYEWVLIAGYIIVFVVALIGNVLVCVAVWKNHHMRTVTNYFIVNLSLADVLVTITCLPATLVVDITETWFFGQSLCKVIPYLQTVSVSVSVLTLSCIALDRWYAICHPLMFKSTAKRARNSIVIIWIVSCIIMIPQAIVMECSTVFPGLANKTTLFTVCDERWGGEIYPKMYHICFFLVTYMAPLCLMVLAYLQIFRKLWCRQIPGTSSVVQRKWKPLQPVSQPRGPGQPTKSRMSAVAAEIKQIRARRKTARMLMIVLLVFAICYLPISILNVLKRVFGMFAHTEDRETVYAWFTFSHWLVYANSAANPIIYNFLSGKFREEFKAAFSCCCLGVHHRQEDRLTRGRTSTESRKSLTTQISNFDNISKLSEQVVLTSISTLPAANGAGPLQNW
# assay-procedure: Antagonistic effect on humanized OX2 receptor, calcium flux by fluorescence detection in HEK-293 cells
# Format: cell-based
recorded-endpoint: pIC50
Worth noting: pIC50 values are minus log10 of concentrations stated in mol/L.

In: Indicate the recorded pIC50 value for this molecule: Cc1ccc(-n2nccn2)c(C(=O)N2CC3CN(c4nc5cc(F)ccc5o4)CC3C2)c1 (stereo not shown)
Out: 6.47
